Cited source: patent US20200131669A1

Test system: Caco-2 cells
experiment summary: Caco-2 membrane permeability, improved method as used in the following Examples (96-well, 20 to 24 h preincubation)
Assay type: in vitro ADME
applied conditions: human, Caco-2, 180 min
Experimental: In the following Examples, membrane permeability was measured in accordance with the improved method established as described above. […] Each well was shaken at 5% CO2, 37° C., and 80 rpm, and 180 minutes after the initiation, the sample on the basal side was collected and the permeation amount was measured by LC/MS. The membrane permeability coefficient (Papp) was calculated from the permeation amount. […]
Positions of bridges follow the written chain, without caps; N, C: chain ends. Non-standard residues stand in square brackets, D forms with d. Residues, ends and D or L forms follow the SMILES beside them. *: point of attachment. NMeF = CN[C@@H](Cc1ccccc1)C(=O)O; CH2CONHtBu = CC(C)(C)NC(=O)C*; NMeL = CN[C@@H](CC(C)C)C(=O)O; NMeA = CN[C@@H](C)C(=O)O; Piperidide = C1CCN(*)CC1; NPrGly = CCCNCC(=O)O
value type: Caco-2 (cm/s)

# molecule, subject of test, value type, observed
records = [
    ("CC[C@H](C)[C@H]1C(=O)N[C@@H]([C@@H](C)O)C(=O)N(C)CC(=O)N(C)[C@@H](CC(C)C)C(=O)N[C@H](C(=O)N2CCCCC2)CC(=O)N(C)[C@@H](C)C(=O)NC(COc2cccc(Cl)c2)C(=O)N(C)[C@@H](CC(C)C)C(=O)N(C)[C@@H](Cc2ccccc2)C(=O)N[C@@H](C)C(=O)N(C)[C@@H](Cc2ccccc2)C(=O)N1C (some centres unmarked)", "Caco-2 cells", "Caco-2", "1.3e-06"),
    ("CCCN1CC(=O)N(C)[C@@H](CC(C)C)C(=O)N[C@@H](CC(C)C)C(=O)N(C)[C@@H](Cc2ccccc2)C(=O)N(C)[C@@H](C)C(=O)N[C@H](C(=O)N2CCCCC2)CC(=O)N[C@H](CC(C)C)C(=O)N(C)[C@@H](Cc2ccccc2)C(=O)N[C@@H](COCC(=O)NC(C)(C)C)C(=O)N(C)[C@@H](CC(C)C)C(=O)N[C@@H]([C@@H](C)O)C1=O [pd442] ([dL][NMeF]S(CH2CONHtBu)[NMeL]T[NPrGly][NMeL]L[NMeF][NMeA]D-Piperidide; lactam N-11)", "Caco-2 cells", "Caco-2", "1.1e-06"),
]

----------
experiment summary: Caco-2 membrane permeability, improved method as used in the following Examples (96-well, 20 to 24 h preincubation)
Assay type: in vitro ADME
applied conditions: human, Caco-2, Caco-2
Positions of bridges follow the written chain, without caps; N, C: chain ends. Non-standard residues stand in square brackets, D forms with d. Residues, ends and D or L forms follow the SMILES beside them. *: point of attachment. Phe(4-CHF2) = N[C@@H](Cc1ccc(C(F)F)cc1)C(=O)O; hhPhe = N[C@@H](CCCc1ccccc1)C(=O)O; NMeF = CN[C@@H](Cc1ccccc1)C(=O)O; NMeI = CC[C@H](C)[C@H](NC)C(=O)O; NMeL = CN[C@@H](CC(C)C)C(=O)O; NMeV = CN[C@H](C(=O)O)C(C)C; NMeA = CN[C@@H](C)C(=O)O; Piperidide = C1CCN(*)CC1; Sar = CNCC(=O)O; tBu = CC(C)(C)*
# Papp A→B at 180 min listing for each entry below
value type: Papp A→B at 180 min (×10⁻⁶ cm/s)

# compound, value type, observed
rows = [
    ("CC(C)C[C@@H]1NC(=O)[C@H](C)N(C)C(=O)C[C@@H](C(=O)N2CCCCC2)NC(=O)[C@H](CC(C)C)N(C)C(=O)CN(C)C(=O)[C@H]([C@@H](C)O)NC(=O)[C@H](C(C)C)N(C)C(=O)[C@H](CC(C)C)N(C)C(=O)[C@H](Cc2ccc(C(F)F)cc2)NC(=O)[C@H](CC(C)C)N(C)C(=O)[C@H](CC(C)C)N(C)C1=O [pd474] ([NMeA]L[NMeL][NMeL][Phe(4-CHF2)][NMeL][NMeV]T[Sar][NMeL]D-Piperidide; lactam N-11)", "Papp A→B at 180 min", 4.5),
    ("CC[C@H](C)[C@H]1C(=O)N[C@H](C(=O)N2CCCCC2)CC(=O)N(C)CC(=O)N(C)[C@@H](Cc2ccccc2)C(=O)N[C@@H](CCCc2ccccc2)C(=O)N(C)[C@@H](CC(C)C)C(=O)N[C@@H]([C@@H](C)O)C(=O)N(C)CC(=O)N(C)[C@@H](Cc2ccccc2)C(=O)N(C)[C@@H](CC(C)C)C(=O)N[C@@H](COC(C)(C)C)C(=O)N1C [pd366] ([Sar][NMeF][hhPhe][NMeL]T[Sar][NMeF][NMeL]S(tBu)[NMeI]D-Piperidide; lactam N-11)", "Papp A→B at 180 min", 1.8),
]

----------
experiment summary: Caco-2 membrane permeability, improved method as used in the following Examples (96-well, 20 to 24 h preincubation)
Type: in vitro ADME
applied conditions: human, Caco-2, Caco-2
Positions of bridges follow the written chain, without caps; N, C: chain ends. Non-standard residues stand in square brackets, D forms with d. Residues, ends and D or L forms follow the SMILES beside them. *: point of attachment. NMeF = CN[C@@H](Cc1ccccc1)C(=O)O; NMeL = CN[C@@H](CC(C)C)C(=O)O; Piperidide = C1CCN(*)CC1; Sar = CNCC(=O)O; Propyl = CCC*

# compound, output unit, Papp A→B at 180 min
data = [
    ("CC(C)C[C@H]1C(=O)N[C@@H](COC(C)(C)C)C(=O)N(C)[C@@H](Cc2ccccc2)C(=O)N(C)[C@@H](C(C)C)C(=O)N[C@H](C(=O)N2CCCCC2)CC(=O)N[C@H](C(C)C)C(=O)N(C)[C@@H](CC(C)C)C(=O)N[C@@H](COc2ccccc2Cl)C(=O)N(C)[C@@H](C)C(=O)N[C@@H]([C@@H](C)O)C(=O)N(C)CC(=O)N1C", "×10⁻⁶ cm/s", 2.6),
    ("CCCOC[C@@H]1NC(=O)[C@H](CC(C)C)N(C)C(=O)[C@H](Cc2ccccc2)N(C)C(=O)CN(C)C(=O)[C@H]([C@@H](C)O)NC(=O)[C@H](CC(C)C)N(C)C(=O)[C@H]([C@@H](C)CC)NC(=O)[C@H](Cc2ccccc2)N(C)C(=O)CN(C)C(=O)C[C@@H](C(=O)N2CCCCC2)NC(=O)[C@H](CC(C)C)N(C)C1=O [pd330] ([Sar][NMeF]I[NMeL]T[Sar][NMeF][NMeL]S(Propyl)[NMeL]D-Piperidide; lactam N-11)", "×10⁻⁶ cm/s", 1.8),
]

----------
experiment summary: Caco-2 membrane permeability, improved method as used in the following Examples (96-well, 20 to 24 h preincubation)
Type: in vitro ADME
applied conditions: human, Caco-2, Caco-2 (cm/sec)
Positions of bridges follow the written chain, without caps; N, C: chain ends. Non-standard residues stand in square brackets, D forms with d. Residues, ends and D or L forms follow the SMILES beside them. *: point of attachment. Phe(4-CF3) = N[C@@H](Cc1ccc(C(F)(F)F)cc1)C(=O)O; NMeF = CN[C@@H](Cc1ccccc1)C(=O)O; NMeL = CN[C@@H](CC(C)C)C(=O)O; NMeA = CN[C@@H](C)C(=O)O; Piperidide = C1CCN(*)CC1; Sar = CNCC(=O)O; tBu = CC(C)(C)*
Recorded Papp A→B at 180 min by entry

# compound, output unit, Papp A→B at 180 min
records = [
    ("CC(C)C[C@H]1C(=O)N(C)[C@@H](C)C(=O)N(C)[C@@H](Cc2ccccc2)C(=O)N[C@@H]([C@@H](C)O)C(=O)N(C)[C@@H](CC(C)C)C(=O)N[C@@H](Cc2ccc(C(F)(F)F)cc2)C(=O)N2CCC[C@H]2C(=O)N[C@H](C(=O)N2CCCCC2)CC(=O)N1C [pd135] ([NMeL][NMeA][NMeF]T[NMeL][Phe(4-CF3)]PD-Piperidide; lactam N-8)", "×10⁻⁶ cm/s", 1.3),
    ("CC(C)C[C@@H]1NC(=O)[C@H](Cc2ccccc2)N(C)C(=O)[C@@H](C(C)C)NC(=O)C[C@@H](C(=O)N2CCCCC2)NC(=O)[C@H](Cc2ccccc2)N(C)C(=O)[C@H](Cc2ccccc2)N(C)C(=O)[C@H](COC(C)(C)C)NC(=O)[C@H](CC(C)C)N(C)C(=O)CN(C)C(=O)[C@H]([C@@H](C)O)NC(=O)[C@H](CC(C)C)N(C)C1=O [pd215] ([dV][NMeF]L[NMeL]T[Sar][NMeL]S(tBu)[NMeF][NMeF]D-Piperidide; lactam N-11)", "×10⁻⁶ cm/s", 1.2),
]
